- target: His6-ERα298-554 D538G mutant (ERα ligand-binding domain) (Homo sapiens (Human), UniProt P03372, D538G)
- Sequence (P03372 298-554 D538G): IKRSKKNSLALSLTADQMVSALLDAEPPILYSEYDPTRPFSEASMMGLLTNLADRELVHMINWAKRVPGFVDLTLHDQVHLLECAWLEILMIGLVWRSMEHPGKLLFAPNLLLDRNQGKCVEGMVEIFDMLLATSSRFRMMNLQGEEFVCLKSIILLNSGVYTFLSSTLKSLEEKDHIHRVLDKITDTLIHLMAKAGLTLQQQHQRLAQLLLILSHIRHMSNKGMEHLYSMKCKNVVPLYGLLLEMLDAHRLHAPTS
- experiment notes: Test A: biochemical antagonist activity, LanthaScreen TR-FRET ERα coactivator assay, D538G mutant
- applied conditions: protocol with 3 nM estradiol; read-out: Antagonism D538G IC50
assay metric: pIC50
pIC50 (log units): -log10 of the concentration in mol/L.

// query For `COc1ccc(C2=C(c3ccc(O[C@H]4CCN(CCCF)C4)cc3)c3ccc(O)cc3OCC2)c(F)c1` , what is its reported pIC50?
// result 7.57

// query Form field: reported pIC50 of `Oc1ccc2c(c1F)OCCC(c1ccc3cc[nH]c3c1)=C2c1ccc(O[C@H]2CCN(CCCF)C2)cc1`
// result 6.47

// query Which pIC50 is listed for `Oc1ccc2c(c1)SCCC(c1cccc3[nH]ccc13)=C2c1ccc(O[C@H]2CCN(CCCF)C2)cc1` ?
// result 8.00

// query pIC50 value for entry `Cc1cc2c(cc1O)OCCC(c1ccc3c(c1)CCN3)=C2c1ccc(O[C@H]2CCN(CCCF)C2)cc1`
// result 5.77

---

# % Degradation at 3 μM values compiled below
- target: ERα in MCF7 cells (Homo sapiens (Human), UniProt P03372)
- Sequence (P03372 whole entry): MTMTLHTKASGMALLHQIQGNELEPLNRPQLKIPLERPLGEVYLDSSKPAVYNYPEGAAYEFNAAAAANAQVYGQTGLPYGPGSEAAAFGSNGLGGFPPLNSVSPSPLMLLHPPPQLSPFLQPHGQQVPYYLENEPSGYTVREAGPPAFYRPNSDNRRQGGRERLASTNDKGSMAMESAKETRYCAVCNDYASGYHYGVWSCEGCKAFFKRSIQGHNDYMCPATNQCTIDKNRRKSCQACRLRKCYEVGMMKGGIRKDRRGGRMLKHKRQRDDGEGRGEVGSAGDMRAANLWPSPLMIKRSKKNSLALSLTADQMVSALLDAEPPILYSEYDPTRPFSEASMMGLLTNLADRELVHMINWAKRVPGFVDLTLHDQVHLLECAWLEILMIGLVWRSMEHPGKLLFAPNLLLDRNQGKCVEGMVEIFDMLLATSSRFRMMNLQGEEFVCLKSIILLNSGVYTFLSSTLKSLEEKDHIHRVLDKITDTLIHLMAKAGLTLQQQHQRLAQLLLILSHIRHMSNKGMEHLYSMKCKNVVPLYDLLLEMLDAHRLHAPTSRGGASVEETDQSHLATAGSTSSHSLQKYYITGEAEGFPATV
- experiment notes: Test C: estrogen receptor degradation activity, ERα in cell western assay in MCF7 cells
- Assay type: cell-based
- applied conditions: at 3 μM, 4 hours, relative to fulvestrant
Entry rule: numbers only, all in %.

Consider the reported % Degradation at 3 μM for these compounds:
1) CCOc1ccc(C2=C(c3ccc(O[C@H]4CCN(CCCF)C4)cc3)c3ccc(O)cc3SCC2)cc1F | 84
2) O=S1(=O)CCC(c2cccc(F)c2Cl)=C(c2ccc(O[C@H]3CCN(CCCF)C3)cc2)c2ccc(O)cc21 | 95

Below: the item to evaluate.
// query Give ERα in MCF7 cells (Homo sapiens (Human), UniProt P03372) % Degradation at 3 μM for `CCOc1ccc(C2=C(c3ccc(O[C@H]4CCN(CCCF)C4)cc3)c3ccc(O)cc3OCC2)c(F)c1`
// result 92

---

- target: ERα in MCF7 cells (Homo sapiens (Human))
- experiment notes: Test C: estrogen receptor degradation activity, ERα in cell western assay in MCF7 cells
- Assay type: cell-based
- applied conditions: at 3 μM, 4 hours, relative to fulvestrant
compounds and their reported % Degradation at 3 μM
Numbers only; they are read as %.

Completed entries (count: 2):
1) O=S1(=O)CCC(c2cccc(O)c2)=C(c2ccc(O[C@H]3CCN(CCCF)C3)cc2)c2ccc(O)cc21 | 87
2) Cc1c(Cl)cccc1C1=C(c2ccc(O[C@H]3CCN(CCCF)C3)cc2)c2ccc(O)cc2SCC1 | 94

// query What reported % Degradation at 3 μM corresponds to `Oc1ccc2c(c1)C(c1ccc(O[C@H]3CCN(CCCF)C3)cc1)=C(c1ccc(Cl)cc1Cl)CCS2` on ERα in MCF7 cells (Homo sapiens (Human))?
// result 79

// query # get_value(readout= % Degradation at 3 μM, system= ERα in MCF7 cells (Homo sapiens (Human))) for `Oc1ccc(C2=C(c3ccc(O[C@H]4CCN(CCCF)C4)cc3)c3ccc(O)cc3OC2)cc1`
// result 75

---

- target: His6-ERα298-554 D538G mutant (ERα ligand-binding domain) (Homo sapiens (Human), UniProt P03372, D538G)
- experiment notes: Test A: biochemical antagonist activity, LanthaScreen TR-FRET ERα coactivator assay, D538G mutant
- applied conditions: asterisk (*): protocol using 10 nM estradiol; read-out: Antagonism D538G IC50
- Method: Test A: Biochemical Antagonist Activity on Wild Type (WT) and Mutants Estrogen Receptors Test A involves measuring the in vitro antagonist activity of the compounds of the invention on estrogen receptors. […] Antagonistic potency of compounds was evaluated using LanthaScreen® TR-FRET ERα Coactivator Assay (ThermoFisher) with modifications. […] The assay works in a homogeneous mix-and-read format. […]
pIC50: −log10 of the molar value.
Rule: pIC50 under 7 gives 0 (no), otherwise 1 (yes).

Known results for compounds:
1) CC(C)(C)c1ccc(C2=C(c3ccc(N[C@H]4CCN(CCCF)C4)cc3)c3ccc(O)cc3CCC2)cc1 | 0 (no)
2) CC(C)(C)c1ccc(C2=C(c3ccc(O[C@H]4CCN(CCCF)C4)cc3)c3ccc(O)cc3SC2)c(F)n1 | 0 (no)
3) Oc1ccc2c(c1)SCCC(c1ccc(OCF)cc1)=C2c1ccc(O[C@H]2CCN(CCCF)C2)cc1 | 1 (yes)
4) CCN(CC)c1ccc(C2=C(c3ccc(O[C@H]4CCN(CCCF)C4)cc3)c3ccc(O)cc3SCC2)c(F)c1 | 0 (no)
5) Oc1ccc2c(c1)CCCC(c1ccc(SC(F)(F)F)cc1)=C2c1ccc(N[C@H]2CCN(CCCF)C2)cc1 | 0 (no)

Now examine the next entry.
// query Please indicate if the recorded pIC50 for `Oc1ccc2c(c1)SCC(c1ccc(OC(F)F)cc1F)=C2c1ccc(O[C@H]2CCN(CCCF)C2)cc1` meets or exceeds 7.
// result 0 (no)

---

- target: His6-ERα298-554 Y537S mutant (ERα ligand-binding domain) (Homo sapiens (Human), UniProt P03372, Y537S)
- Sequence (P03372 298-554 Y537S): as the sequence (P03372 298-554 D538G) above, with Y240S, G241D counted along it
- experiment notes: Test A: biochemical antagonist activity, LanthaScreen TR-FRET ERα coactivator assay, Y537S mutant
- applied conditions: asterisk (*): protocol using 10 nM estradiol; read-out: Antagonism Y537S IC50
Entries and their IC50 values follow.
Quick note: give the figure in nM, leave out the unit.

1. Cc1cc(C2=C(c3ccc(O[C@H]4CCN(CCCF)C4)nc3)c3ccc(O)c(F)c3CCC2)ccc1Cl [Example 250] | 70
2. CCOc1nccc(C2=C(c3ccc(O[C@H]4CCN(CCCF)C4)cc3)c3ccc(O)cc3SC2)c1Cl [Example 53] | 25
3. Oc1ccc2c(c1)SCC(c1ccc(F)nc1F)=C2c1ccc(O[C@H]2CCN(CCCF)C2)cc1 [Example 49] | 472

# next molecule below
// query Using the record for COc1ccc(C2=C(c3ccc(O[C@H]4CCN(CCCF)C4)cc3)c3ccc(O)cc3SC2)cc1F [Example 23] , report its IC50.
// result 678

---

- target: ERα in MCF7 cells (Homo sapiens (Human), UniProt P03372)
- experiment notes: Test C: estrogen receptor degradation activity, ERα in cell western assay in MCF7 cells
- Type: cell-based
- applied conditions: at 3 μM, 4 hours, relative to fulvestrant
Label Y when % Degradation at 3 μM is at or above 90%; otherwise label N.

These solved cases illustrate the format of a correct answer.
1. Oc1ccc2c(c1)SCCC(c1ccc(OC(F)F)c(F)c1)=C2c1ccc(O[C@H]2CCN(CCCF)C2)nc1 | N
2. Oc1ccc2c(c1)OCCC(c1ccc(Cl)cc1F)=C2c1ccc(O[C@H]2CCN(CCCF)C2)cc1 | Y
3. CCOc1ccc(C2=C(c3ccc(O[C@H]4CCN(CCCF)C4)nc3)c3ccc(O)c(F)c3CCC2)c(F)n1 | N

// query Determine whether measured % Degradation at 3 μM meets or exceeds 90% for `Cc1c(Cl)cccc1C1=C(c2ccc(O[C@H]3CCN(CCCF)C3)cc2)c2ccc(O)cc2S(=O)(=O)CC1`
// result Y

// query Could you please find out whether `O=C(O)c1ccc2c(c1)CCCC(c1ccc(OC(F)F)c(F)c1)=C2c1ccc(O[C@H]2CCN(CCCF)C2)nc1` has % Degradation at 3 μM that meets 90% or exceeds it?
// result Y

---

Here the recorded DC50 is given for each entry.
- target: ERα in MCF7 cells (Homo sapiens (Human))
- experiment notes: Test C: estrogen receptor degradation activity, ERα in cell western assay in MCF7 cells
- Type: cell-based
- applied conditions: 4 hours post compound addition, ERα in cell western, read-out: Degradation IC50
Give the value in nM but do not write nM after it.

1) Nc1ccc(C2=C(c3ccc(O[C@H]4CCN(CCCF)C4)cc3)c3ccc(O)cc3SC2)c(F)n1 | 0.2

// query Look up DC50 for this molecule: `COCCOc1ccc(C2=C(c3ccc(O[C@H]4CCN(CCCF)C4)cc3)c3ccc(O)cc3OCC2)cc1`
// result 2

// query Need DC50, item `Oc1ccc2c(c1)OCCC(c1ccc3cc[nH]c3c1)=C2c1ccc(O[C@H]2CCN(CCCF)C2)cc1`
// result 3

---

- target: His6-ERα298-554 WT (ERα ligand-binding domain) (Homo sapiens (Human), UniProt P03372)
- experiment notes: Test A: biochemical antagonist activity, LanthaScreen TR-FRET ERα coactivator assay, WT
- applied conditions: protocol with 3 nM estradiol; read-out: Antagonism WT IC50
pIC50: −log10 of the molar value.
Label rule, in plain words: pIC50 of 8 and up is 1 (yes), under 8 is 0 (no).

Look over these answered cases.
1) Oc1ccc2c(c1)C(c1ccc(N[C@H]3CCN(CCCF)C3)cc1)=C(c1ccc(F)cc1Cl)CC2 [Example 84] | 0 (no)
2) Oc1ccc2c(c1)C(c1ccc(O[C@H]3CCN(CCCF)C3)cc1)=C(C1=CCOCC1)CC2 [Example 3] | 0 (no)
3) Oc1ccc2c(c1F)OCCC(c1cccc3c1CCN3)=C2c1ccc(O[C@H]2CCN(CCCF)C2)cc1 [Example 134] | 0 (no)
4) Oc1ccc2c(c1)SCCC(c1cccc(F)c1Cl)=C2c1ccc(O[C@H]2CCN(CCCF)C2)cc1 [Example 168] | 1 (yes)
5) Oc1ccc2c(c1)SCCC(c1cccc3[nH]ccc13)=C2c1ccc(O[C@H]2CCN(CCCF)C2)cc1 [Example 178] | 1 (yes)
6) CC1(C)Cc2cc(C3=C(c4ccc(O[C@H]5CCN(CCCF)C5)cc4)c4ccc(O)cc4SCC3)ccc2N1 [Example 198] | 1 (yes)
7) Cc1c(O)ccc2c1OCCC(c1ccc3c(c1)CCN3)=C2c1ccc(O[C@H]2CCN(CCCF)C2)cc1 [Example 118] | 0 (no)
8) Oc1ccc2c(c1F)OCCC(c1ccc3cc[nH]c3c1)=C2c1ccc(O[C@H]2CCN(CCCF)C2)cc1 [Example 131] | 0 (no)

// query # bool: pIC50 of Oc1ccc(C2=C(c3ccc(O[C@H]4CCN(CCCF)C4)cc3)c3ccc(O)cc3SCC2)c(F)c1 [Example 169] >= 8
// result 1 (yes)

// query Could you verify whether the entry Oc1ccc2c(c1F)CCCC(c1ccc(Cl)cc1Cl)=C2c1ccc(O[C@H]2CCN(CCCF)C2)nc1 [Example 245] shows pIC50 of no less than 8?
// result 1 (yes)
